All values here come from patent US20060264369.

- tested-system: von Willebrand factor A1 domain (human) (Homo sapiens, UniProt P04275 SEQ:13-246)
- Sequence (P04275 1238-1471 T1381A): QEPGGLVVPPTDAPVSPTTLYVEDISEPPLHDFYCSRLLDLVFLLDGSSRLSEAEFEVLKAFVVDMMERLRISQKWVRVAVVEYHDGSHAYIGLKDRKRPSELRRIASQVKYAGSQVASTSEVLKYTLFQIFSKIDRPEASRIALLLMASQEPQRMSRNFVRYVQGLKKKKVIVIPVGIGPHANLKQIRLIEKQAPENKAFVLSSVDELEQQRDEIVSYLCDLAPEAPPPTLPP
- assay-name: filter; 100 nM protein
attribute-measured: binding signal

Query: For AMX200.F9 (ssDNA) DNA: CTACCTACGATCTGACTAGCGGAATGAGGATGCTGATGGATTGGTCAGGTCTGCTGGCTGCTTACTCTCATGTAGTTCC , what is its reported binding signal?
Result: 0.97 ratio to no protein

Query: For AMX200.D8 (ssDNA) DNA: CTACCTACGATCTGACTAGCGGAATGAGAATGTTGATGGATTGCTCAGGTCTGCTGGCTGCTTACTCTCATGTAGTTCC then?
Result: 2.86 ratio to no protein

Query: For AMX202.F6 (ssDNA) DNA: CTACCTACGATCTGACTAGCAAGGGGATTGGCTCCGGGTCTGGCGTGCTCGGCACCTTCGGCTTACTCTCATGTAGTTCC then?
Result: 1.49 ratio to no protein
